Cited source: patent US10501479B2

# system: GHSR-1a (HEK293/GHSR1a cell line) (Homo sapiens, UniProt Q92847)
# Construct: expressed in transfected cells; host or cells: HEK293/GHSR1a cell line
# Sequence (Q92847 whole entry): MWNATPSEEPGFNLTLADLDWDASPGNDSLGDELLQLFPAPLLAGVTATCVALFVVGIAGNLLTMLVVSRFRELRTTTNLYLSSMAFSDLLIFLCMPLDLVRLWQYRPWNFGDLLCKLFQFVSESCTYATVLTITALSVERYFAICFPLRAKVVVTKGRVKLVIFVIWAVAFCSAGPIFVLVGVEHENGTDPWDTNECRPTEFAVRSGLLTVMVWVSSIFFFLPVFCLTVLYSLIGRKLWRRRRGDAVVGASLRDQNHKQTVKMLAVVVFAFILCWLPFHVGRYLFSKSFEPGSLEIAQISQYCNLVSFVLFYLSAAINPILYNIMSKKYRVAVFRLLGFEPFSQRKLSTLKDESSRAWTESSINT
# protocol.details: Ghrelin antagonist potency (IC50) with calcium FLIPR assay, ghrelin 10 nM
# Type: cell-based
# reported.conditions: ghrelin antagonist potency, read-out: Activity IC50
measured.parameter: IC50

>>> reported_result("CC(c1ccccc1)N(O)C(=O)Nc1ccc(S(=O)(=O)Cc2ccc3c(c2)CNC3)cc1 (stereo not shown) [H1472]")
"6 nM"
>>> reported_result("CC(c1ccccc1)n1c(=O)[nH]c2ccc(S(=O)(=O)Cc3ccc4c(c3)CN(C)C4)cc2c1=O (stereo not shown)")
"483 nM"
>>> reported_result("CC(NC(=O)Nc1ccc(S(=O)(=O)Cc2ccc3c(c2)CNC3)cc1C(C)(C)O)c1ccccc1 (stereo not shown)")
"582 nM"
>>> reported_result("CC(c1ccccc1)N(O)C(=O)Nc1ccc(S(=O)(=O)Cc2ccc3c(c2)CN(C)C3)cc1 (stereo not shown) [H1527]")
"130 nM"
